experimental-target: T1, human CD39 on the cell surface (human, UniProt P49961 1-510)
T1 sequence (looked up): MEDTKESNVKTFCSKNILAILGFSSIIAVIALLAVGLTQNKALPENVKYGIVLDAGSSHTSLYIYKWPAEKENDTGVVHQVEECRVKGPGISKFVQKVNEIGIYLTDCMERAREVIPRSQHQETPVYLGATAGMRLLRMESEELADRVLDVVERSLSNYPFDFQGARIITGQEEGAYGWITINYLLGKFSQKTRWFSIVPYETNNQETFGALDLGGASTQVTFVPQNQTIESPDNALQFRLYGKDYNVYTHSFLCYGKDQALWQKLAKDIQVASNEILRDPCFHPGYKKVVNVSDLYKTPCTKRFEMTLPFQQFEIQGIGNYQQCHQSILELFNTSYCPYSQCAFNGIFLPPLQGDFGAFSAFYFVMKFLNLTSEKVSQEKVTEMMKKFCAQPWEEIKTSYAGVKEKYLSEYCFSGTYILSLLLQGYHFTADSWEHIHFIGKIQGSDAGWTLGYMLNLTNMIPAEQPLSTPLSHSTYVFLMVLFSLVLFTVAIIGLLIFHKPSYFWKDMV
protocol-description: cell-based or functional assay
Reported Enzymatic activity inhibition (EC50 nM) values for a set of binders
API: value field is a number in nM; no unit string.

Using the record for humanized antibody F03-13 (antibody, human IgG4 S228P, kappa, V domains shown, Human IgG4 (S228P) and human kappa constant regions) VH: QVQLVQSGAEVKKPGASVKVSCKASGYTFTNYWMYWVRQAPGQGLEWIGRIAPSSGATKYNEKFKNRATLTVDTSISTAYMELSRLRSDDTAVYYCARSGIYYDYDWFFDVWGQGTTVTVSS VL: DIQMTQSPSSLSASVGDRVTITCKASQDINKYIGWYQQKPGKAPKLLIHYTSTLQPGVPSRFSGSGSGRDYTFTISSLQPEDIATYYCLQYHALLFTFGQGTKLEIKR , state its measured Enzymatic activity inhibition (EC50 nM).
0.09

Determine its reported Enzymatic activity inhibition (EC50 nM): humanized antibody F03-7 (antibody, human IgG4 S228P, kappa, V domains shown, Human IgG4 (S228P) and human kappa constant regions) VH: QVQLVQSGAEVKKPGASVKVSCKASGYTFTNYWMYWVRQAPGQGLEWMGRIAPSSGATKYNEKFKNRVTLTVDTSISTAYMELSRLRSDDTAVYYCARSGIYYDYDWFFDVWGQGTTVTVSS VL: DIQMTQSPSSLSASVGDRVTITCKASQDINKYIGWYQQKPGKAPKLLIHYTSTLQPGVPSRFSGSGSGTDFTFTISSLQPEDIATYYCLQYHALLFTFGQGTKLEIKR
0.15

Name the recorded Enzymatic activity inhibition (EC50 nM) of the item humanized antibody F03-12 (antibody, human IgG4 S228P, kappa, V domains shown, Human IgG4 (S228P) and human kappa constant regions) VH: QVQLVQSGAEVKKPGASVKVSCKASGYTFTNYWMYWVRQAPGQGLEWMGRIAPSSGATKYNEKFKNRVTLTVDTSISTAYMELSRLRSDDTAVYYCARSGIYYDYDWFFDVWGQGTTVTVSS VL: DIQMTQSPSSLSASVGDRVTITCKASQDINKYIGWYQQKPGKAPKLLIHYTSTLQPGVPSRFSGSGSGRDYTFTISSLQPEDIATYYCLQYHALLFTFGQGTKLEIKR in your answer.
0.06

Now consider a different binder.
Give the reported Enzymatic activity inhibition (EC50 nM) for this binder. humanized antibody F03-11 (antibody, human IgG4 S228P, kappa, V domains shown, Human IgG4 (S228P) and human kappa constant regions) VH: QVQLVQSGAEVKKPGASVKVSCKASGYTFTNYWMYWVRQAPGQGLEWMGRIAPSSGATKYNEKFKNRVTMTRDTSISTAYMELSRLRSDDTAVYYCARSGIYYDYDWFFDVWGQGTTVTVSS VL: DIQMTQSPSSLSASVGDRVTITCKASQDINKYIGWYQQKPGKAPKLLIHYTSTLQPGVPSRFSGSGSGRDYTFTISSLQPEDIATYYCLQYHALLFTFGQGTKLEIKR
0.03
